Data provenance is patent US12180193B2.

STUDY TARGET: BRAF V600E (Homo sapiens, UniProt P15056, V600E)
Construct: expressed in transfected cells
Sequence (P15056 whole entry V600E): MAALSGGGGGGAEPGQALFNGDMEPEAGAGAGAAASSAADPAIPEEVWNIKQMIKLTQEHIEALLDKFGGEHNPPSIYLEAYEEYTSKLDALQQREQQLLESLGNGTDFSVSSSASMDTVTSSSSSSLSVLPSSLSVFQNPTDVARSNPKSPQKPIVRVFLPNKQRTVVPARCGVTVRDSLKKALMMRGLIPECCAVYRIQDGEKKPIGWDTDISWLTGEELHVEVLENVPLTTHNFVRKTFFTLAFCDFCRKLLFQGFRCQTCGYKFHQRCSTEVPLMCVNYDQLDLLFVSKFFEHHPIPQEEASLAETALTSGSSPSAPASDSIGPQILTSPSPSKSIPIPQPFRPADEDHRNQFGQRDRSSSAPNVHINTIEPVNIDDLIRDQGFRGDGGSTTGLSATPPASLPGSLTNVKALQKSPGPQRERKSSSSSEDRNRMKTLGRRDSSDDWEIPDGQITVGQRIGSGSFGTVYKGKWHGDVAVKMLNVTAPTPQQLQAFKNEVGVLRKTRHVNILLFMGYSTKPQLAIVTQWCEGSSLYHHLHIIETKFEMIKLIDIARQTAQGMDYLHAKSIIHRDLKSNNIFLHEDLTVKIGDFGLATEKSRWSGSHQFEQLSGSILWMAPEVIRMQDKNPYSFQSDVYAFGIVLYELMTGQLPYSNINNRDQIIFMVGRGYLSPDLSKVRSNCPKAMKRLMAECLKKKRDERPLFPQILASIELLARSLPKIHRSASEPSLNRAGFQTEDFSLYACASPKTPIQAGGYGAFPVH
MEASUREMENT PROTOCOL: Cellular assay of target protein degradation, T-Rex 293 cells stably transfected with HA-BRAF_V600E (HA immunofluorescence, high content imaging)
Assay type: cell-based
SETTINGS: half maximal degradation, T-Rex 293 HA-BRAF V600E; read-out: BRaf V600E DC50
ASSAY READOUT: DC50

Would you please look over these solved cases?
COMPOUND	DC50
C[C@@]12CN(CC3CCN(c4ccc5c(c4)CN(C4CCC(=O)NC4=O)C5=O)CC3)C[C@]1(C)CN(c1ccc(-c3cnc4[nH]cc(C(=O)c5c(F)ccc(NS(=O)(=O)N6CC[C@@H](F)C6)c5F)c4c3)cc1)C2 (stereo partly drawn) [Compound 2]	5 to 50 nM
C[C@H]1C[C@@H](CN2CCC(c3ccc4c(c3)CN([C@@H]3CCC(=O)NC3=O)C4=O)CC2)CCN1c1ccc(-c2cnc3[nH]cc(C(=O)c4c(F)ccc(NS(=O)(=O)N5CC[C@@H](F)C5)c4F)c3c2)cc1 [Compound 240]	5 to 50 nM

## Task Would you mind telling me what DC50 value was observed for O=C1CCC(N2Cc3cc(C4CCN(CCc5ccc(-c6cnc7[nH]cc(C(=O)c8c(F)ccc(NS(=O)(=O)N9CC[C@@H](F)C9)c8F)c7c6)cc5)[C@@H](CO)C4)ccc3C2=O)C(=O)N1 (stereo partly drawn) [Compound 150] ?
## Result 50 to 500 nM

---

In this section we review reported DC50 values for a set of compounds.
STUDY TARGET: BRAF G466V (Homo sapiens, UniProt P15056, G466V)
Construct: expressed in transfected cells
Sequence (P15056 whole entry G466V): as the sequence (P15056 whole entry V600E) above, with G466V, E600V counted along it
MEASUREMENT PROTOCOL: Cellular assay of target protein degradation, T-Rex 293 cells stably transfected with HA-BRAF G466V (HA immunofluorescence, high content imaging)
Type: cell-based
SETTINGS: half maximal degradation, T-Rex 293 HA-BRAF G466V; read-out: BRaf G466V DC50

Would you please look over these solved cases?
COMPOUND	DC50
O=C1CCC(N2Cc3cc(C4CCN(CC5CCN(c6c(F)cc(-c7cnc8[nH]cc(C(=O)c9c(F)ccc(NS(=O)(=O)N%10CC[C@@H](F)C%10)c9F)c8c7)cc6F)CC5)CC4)ccc3C2=O)C(=O)N1 (some centres unmarked)	1 to 10 nM
CN1C(=O)CCC(N2Cc3cc(C4CCN(CC5CCN(c6ccc(-c7cnc8[nH]cc(C(=O)c9c(F)ccc(NS(=O)(=O)N%10CC[C@@H](F)C%10)c9F)c8c7)cc6)CC5)CC4)ccc3C2=O)C1=O (some centres unmarked)	> 30 nM
O=C1CCC(N2Cc3cc(N4CCN(CC5CN(c6ncc(-c7cnc8[nH]cc(C(=O)c9c(F)ccc(NS(=O)(=O)N%10CC[C@@H](F)C%10)c9F)c8c7)cn6)C5)CC4)ccc3C2=O)C(=O)N1 (some centres unmarked)	1 to 10 nM
O=C1CCC(N2Cc3cc(N4CC(CN5CCN(C6(c7ccc(-c8cnc9[nH]cc(C(=O)c%10c(F)ccc(NS(=O)(=O)N%11CC[C@@H](F)C%11)c%10F)c9c8)cc7)CC6)CC5)C4)ccc3C2=O)C(=O)N1 (some centres unmarked)	1 to 10 nM

Alright, here's another compound for you.
## Task Would you mind telling me what DC50 value was observed for O=C1CCC(N2Cc3cc(CCOCCN4CCC(c5ccc(-c6cnc7[nH]cc(C(=O)c8c(F)ccc(NS(=O)(=O)N9CC[C@@H](F)C9)c8F)c7c6)cc5)CC4)ccc3C2=O)C(=O)N1 (some centres unmarked) ?
## Result 1 to 10 nM
